# assay_name: Apparent permeability of compound in dog MDCKII cells
# Format: ADME, cell-based, Canis lupus familiaris, MDCK-II
# particulars: MDCK
Listing of entries alongside the reported Papp.
measured_property: Papp

input_smiles	result
COc1cccc(F)c1-c1cc2c(cn1)cnn2-c1cccc(N2C[C@@H]3C[C@H]2CN3C)n1	34 ×10⁻⁶ cm/s
COc1cccc(F)c1-c1cc2c(cn1)cnn2-c1cccc(N2CC3CCC(C2)N3C)n1	26 ×10⁻⁶ cm/s
COc1cccc(F)c1-c1cc2c(cnn2-c2cccc(N3CCN(C)CC3)n2)cc1C#N	< 14 ×10⁻⁶ cm/s
COc1cccc(F)c1-c1cc2c(cn1)cnn2-c1cccc(N2CC[C@H](N(C)C)C2)n1	30 ×10⁻⁶ cm/s
COc1cccc(F)c1-c1cc2c(cn1)cnn2-c1cccc(N2CCN(C)CC2)n1	28 ×10⁻⁶ cm/s
Cc1cccc(F)c1-c1cc2c(cnn2-c2ccc(N3CCN(C)CC3)cc2)cc1C#N	< 8 ×10⁻⁶ cm/s

* * *

# Organism: Homo sapiens
# assay_name: Selectivity ratio of IC50 for JAK2 (unknown origin) by ATP competitive binding assay to IC50 for N-terminal GST-tagged human recombinant HPK1 (1 to 346 residues ) expressed in baculovirus-infected Sf9 cells by HTRF lanthascreen binding assay
Rule: Ratio IC50 below 60 gives yes (1), anything at or above gives no (0).

compound	classification
CN1CCN(c2cc(-c3n[nH]c4ccc(-c5cnn6c5CCC6)cc34)ccn2)CC1	no (0)
CNC(=O)N1CCN(c2cccc(-n3ncc4cnc(-c5c(F)cccc5OC)cc43)n2)CC1	yes (1)
COc1cccc(F)c1-c1cc2c(cn1)cnn2-c1cccc(N2CC3CCC(C2)N3C)n1	no (0)
COc1cccc(F)c1-c1cc2c(cn1)cnn2-c1cccc(N2CCN(C)CC2)n1	no (0)
COc1cccc(F)c1-c1cc2c(cn1)cnn2-c1ccnc(N2CCN(C)CC2)n1	no (0)
COc1cccc(F)c1-c1cc2c(cn1)cnn2-c1cccc(N2C[C@@H]3C[C@H]2CN3C)n1	no (0)
COc1ccncc1-c1cc2c(cn1)cnn2-c1ccc(N2CCN(C)CC2)cc1	no (0)
Cc1cccc(C)c1-c1cc2c(cn1)cnn2-c1ccc(N2CCN(C)CC2)cc1	yes (1)
COc1cccc(F)c1-c1cc2c(cnn2-c2cccc(N3CCN(C)CC3)n2)cc1C#N	no (0)
Cc1ccccc1-c1cc2c(cn1)cnn2-c1ccc(N2CCN(C)CC2)cc1	yes (1)
COc1cccc(F)c1-c1cc2c(cn1)cnn2-c1cc(Cl)cc(N2CCN(C)CC2)n1	no (0)
Cc1cccc(F)c1-c1cc2c(cn1)cnn2-c1ccc(N2CCN(C)CC2)cc1	no (0)
COc1cccc(F)c1-c1cc2c(cn1)cnn2-c1cccc(N2CCNCC2)n1	no (0)
COc1cccc(F)c1-c1cc2c(cn1)cnn2-c1ccccc1	yes (1)
COc1cccc(F)c1-c1cc2c(cn1)cnn2-c1cccc(N2CCN(C)CC2)c1	yes (1)
CNC1CCc2c1ccc(F)c2-c1cc2c(cn1)cnn2-c1ccc(N2CCN(C)CC2)cc1 (racemic)	yes (1)
COc1cccc(F)c1-c1cc2c(cn1)cnn2-c1cccc(N2CC3(CCCNC3)C2)n1	no (0)
COc1cccc(F)c1-c1cc2c(cn1)cnn2-c1cccc(N2CCOCC2)n1	yes (1)
COC(=O)N1CCN(c2cccc(-n3ncc4cnc(-c5c(F)cccc5OC)cc43)n2)CC1	yes (1)
COc1ccncc1-c1ccc2cnn(-c3ccnc(N4CCOCC4)c3)c2c1	yes (1)
CCOc1cccc(F)c1-c1cc2c(cn1)cnn2-c1ccc(N2CCN(C)CC2)cc1	yes (1)
COc1cccc(F)c1-c1cc2c(cn1)cnn2-c1ccc(N2CCOCC2)cc1	no (0)
COc1cccc(F)c1-c1cc2c(cn1)cnn2-c1cccc(N2CC[C@H](N(C)C)C2)n1	no (0)
C[C@@H]1CN(c2cc(-n3ncc4ccc(-c5cnn6c5OCCC6)cc43)ccn2)C[C@H](C)N1C	yes (1)
COc1cccc(F)c1-c1cc2c(cn1)cnn2-c1cccc(N2CCCCC2)n1	yes (1)
CN1CCN(c2ccc(-n3ncc4cnc(-c5ccccc5)cc43)cc2)CC1	yes (1)
CN1CCN(c2cc(-c3n[nH]c4cnc(-c5cnn6c5CCC6)cc34)ccn2)CC1	yes (1)
COc1cccc(F)c1-c1cc2c(cn1)cnn2-c1ccc(N2CCN(C)CC2)cc1	no (0)
COc1cccc(-n2ncc3cnc(-c4c(F)cccc4OC)cc32)n1	yes (1)
CNC1CCN(c2cccc(-n3ncc4cnc(-c5c(F)cccc5OC)cc43)n2)CC1	no (0)
COc1cccc(F)c1-c1cc2c(cn1)cnn2-c1cccc(N2CC(N)C2)n1	yes (1)

* * *

# target_or_system: Mitogen-activated protein kinase kinase kinase kinase 1 (Homo sapiens)
# assay_name: Inhibition of HPK1 in human PBMC assessed as inhibition of SLP76 phosphorylation by ELISA
pIC50: −log10 of the molar value.
measured_property: pIC50

input_smiles	modifier	numeric_readout
Cc1cccc(F)c1-c1cc2c(cnn2-c2ccc(N3CCN(C)CC3)cc2)cc1C#N	<	5.00
COc1cccc(F)c1-c1cc2c(cnn2-c2cccc(N3CCN(C)CC3)n2)cc1C#N	<	5.00
COc1cccc(F)c1-c1cc2c(cn1)cnn2-c1cccc(N2CC3CCC(C2)N3C)n1	=	5.40
COc1cccc(F)c1-c1cc2c(cn1)cnn2-c1cccc(N2C[C@@H]3C[C@H]2CN3C)n1	=	5.37
COc1cccc(F)c1-c1cc2c(cn1)cnn2-c1cccc(N2CCN(C)CC2)n1	=	5.10
COc1cccc(F)c1-c1cc2c(cn1)cnn2-c1cccc(N2CC[C@H](N(C)C)C2)n1	<	5.00

* * *

# assay_name: Total Plasma clearance in Wistar Han rat at 0.1 mg/kg, iv
# Format: ADME, organism-based

input_smiles	clearance (mL/min/kg)
C[C@@H]1CN(c2cc(-n3ncc4ccc(-c5cnn6c5OCCC6)cc43)ccn2)C[C@H](C)N1C	8.7
CN1CCN(c2cc(-c3n[nH]c4cnc(-c5cnn6c5CCC6)cc34)ccn2)CC1	130
COc1cccc(F)c1-c1cc2c(cn1)cnn2-c1cccc(N2CCN(C)CC2)n1	9.4
Cc1cccc(F)c1-c1cc2c(cnn2-c2ccc(N3CCN(C)CC3)cc2)cc1C#N	151
COc1cccc(F)c1-c1cc2c(cnn2-c2cccc(N3CCN(C)CC3)n2)cc1C#N	12
CN1CCN(c2cc(-c3n[nH]c4ccc(-c5cnn6c5CCC6)cc34)ccn2)CC1	117
COc1ccncc1-c1ccc2cnn(-c3ccnc(N4CCOCC4)c3)c2c1	31
COc1cccc(F)c1-c1cc2c(cn1)cnn2-c1cccc(N2CC[C@H](N(C)C)C2)n1	4.8

* * *

# target_or_system: Mitogen-activated protein kinase kinase kinase kinase 1 (Homo sapiens, UniProt Q92918)
# Sequence (Q92918 whole entry, the tested form may be a part): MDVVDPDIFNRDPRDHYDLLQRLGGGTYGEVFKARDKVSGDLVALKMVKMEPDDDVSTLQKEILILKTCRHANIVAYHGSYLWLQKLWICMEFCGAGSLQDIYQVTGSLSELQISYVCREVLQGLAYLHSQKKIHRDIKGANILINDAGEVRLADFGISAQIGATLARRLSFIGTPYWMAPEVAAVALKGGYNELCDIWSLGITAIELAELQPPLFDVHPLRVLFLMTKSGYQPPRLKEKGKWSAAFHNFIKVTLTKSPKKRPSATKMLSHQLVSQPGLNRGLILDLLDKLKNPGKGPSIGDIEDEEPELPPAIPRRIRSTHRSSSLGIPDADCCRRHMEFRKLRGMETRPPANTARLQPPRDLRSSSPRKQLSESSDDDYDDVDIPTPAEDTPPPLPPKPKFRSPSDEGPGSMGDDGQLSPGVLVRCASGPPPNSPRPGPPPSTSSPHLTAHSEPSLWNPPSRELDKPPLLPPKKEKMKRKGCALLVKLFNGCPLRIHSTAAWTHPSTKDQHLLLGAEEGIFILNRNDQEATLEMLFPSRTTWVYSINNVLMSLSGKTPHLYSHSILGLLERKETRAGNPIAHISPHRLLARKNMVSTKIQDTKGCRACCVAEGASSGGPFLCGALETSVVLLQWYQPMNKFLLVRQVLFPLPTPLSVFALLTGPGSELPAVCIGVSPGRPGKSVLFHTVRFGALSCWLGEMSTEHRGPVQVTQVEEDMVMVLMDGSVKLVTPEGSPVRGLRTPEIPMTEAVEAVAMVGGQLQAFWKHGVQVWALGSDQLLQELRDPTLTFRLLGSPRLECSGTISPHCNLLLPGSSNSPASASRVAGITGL
# assay_name: Displacement of Tracer 222 from N-terminal GST-tagged human recombinant HPK1 (1 to 346 residues ) expressed in baculovirus-infected Sf9 cells incubated for 1 hr by HTRF lanthascreen binding assay
Rule: IC50 below 100 nM gives yes, anything at or above gives no.

compound	classification
COc1cccc(F)c1-c1cc2c(cn1)cnn2-c1cccc(N2C[C@@H]3C[C@H]2CN3C)n1	yes
COc1cccc(F)c1-c1cc2c(cn1)cnn2-c1ccnc(N2CCN(C)CC2)c1	yes
COc1cccc(F)c1-c1cc2c(cnn2-c2cccc(N3CCN(C)CC3)n2)cc1C#N	yes
Cc1cccc(F)c1-c1cc2c(cn1)cnn2-c1ccc(N2CCN(C)CC2)cc1	no
COc1cccc(F)c1-c1cc2c(cn1)cnn2-c1cccc(N2CCOCC2)n1	yes
CN1CCN(c2cc(-c3n[nH]c4ccc(-c5cnn6c5CCC6)cc34)ccn2)CC1	yes
CNC1CCc2c1ccc(F)c2-c1cc2c(cn1)cnn2-c1ccc(N2CCN(C)CC2)cc1 (racemic)	no
COc1cccc(F)c1-c1cc2c(cn1)cnn2-c1cccc(N2CCCC2=O)n1	no
COc1cccc(F)c1-c1cc2c(cn1)cnn2-c1cccc(N2CC3CCC(C2)N3C)n1	yes
COc1ccncc1-c1cc2c(cn1)cnn2-c1ccc(N2CCN(C)CC2)cc1	no
Cc1cccc(F)c1-c1cc2c(cnn2-c2ccc(N3CCN(C)CC3)cc2)cc1C#N	yes
COc1ccncc1-c1ccc2cnn(-c3ccnc(N4CCOCC4)c3)c2c1	no
COc1cccc(F)c1-c1cc2c(cn1)cnn2-c1cccc(N2CCCCC2)n1	yes
CNC(=O)N1CCN(c2cccc(-n3ncc4cnc(-c5c(F)cccc5OC)cc43)n2)CC1	yes
COc1cccc(F)c1-c1cc2c(cn1)cnn2-c1cc(Cl)cc(N2CCN(C)CC2)n1	yes
COc1cccc(F)c1-c1cc2c(cn1)cnn2-c1ccc(N2CCN(C)CC2)cn1	yes
COc1cccc(F)c1-c1cc2c(cn1)cnn2-c1cccc(N2CCN(C)CC2)n1	yes
COc1cccc(F)c1-c1cc2c(cn1)cnn2-c1cccc(N2CC(N)C2)n1	yes
COc1cccc(F)c1-c1cc2c(cn1)cnn2-c1cccc(N)n1	no
CN1CCN(c2ccc(-n3ncc4cnc(-c5ccccc5)cc43)cc2)CC1	no
COC(=O)N1CCN(c2cccc(-n3ncc4cnc(-c5c(F)cccc5OC)cc43)n2)CC1	yes
Cc1cccc(F)c1-c1ccc2cnn(-c3ccc(N4CCN(C)CC4)cc3)c2c1	no
Cc1cccc(F)c1-c1cc2c(cn1)cnn2-c1cnn(C)c1	no
CN1CCN(c2cc(-c3n[nH]c4cnc(-c5cnn6c5CCC6)cc34)ccn2)CC1	yes
COc1cccc(F)c1-c1cc2c(cn1)cnn2-c1cccc(N2CC[C@H](N(C)C)C2)n1	yes
CCOc1cccc(F)c1-c1cc2c(cn1)cnn2-c1ccc(N2CCN(C)CC2)cc1	no
COc1cccc(F)c1-c1cc2c(cn1)cnn2-c1cccc(N2CC3(CCCNC3)C2)n1	yes
COc1cccc(F)c1-c1cc2c(cn1)cnn2-c1cccc(N2CCNCC2)n1	yes
Cc1cccc(C)c1-c1cc2c(cn1)cnn2-c1ccc(N2CCN(C)CC2)cc1	no
COc1cccc(F)c1-c1cc2c(cn1)cnn2-c1ccc(N2CCN(C)CC2)cc1	yes
CNC1CCN(c2cccc(-n3ncc4cnc(-c5c(F)cccc5OC)cc43)n2)CC1	yes
Cc1ccccc1-c1cc2c(cn1)cnn2-c1ccc(N2CCN(C)CC2)cc1	no
COc1cccc(F)c1-c1cc2c(cn1)cnn2-c1cccc(N2CCCC2)n1	no
COc1cccc(F)c1-c1cc2c(cn1)cnn2-c1ccccc1	no
C[C@@H]1CN(c2cc(-n3ncc4ccc(-c5cnn6c5OCCC6)cc43)ccn2)C[C@H](C)N1C	no
COc1cccc(F)c1-c1cc2c(cn1)cnn2-c1cccc(N2CCN(C)CC2)c1	no
COc1cccc(F)c1-c1cc2c(cn1)cnn2-c1ccnc(N2CCN(C)CC2)n1	yes

Data credit: ChEMBL document CHEMBL4715933
